Source listed as patent US20240366813A1.

Provide the reported plasma radioactive counts, MEAN of each item.
- Protocol notes: In vivo metabolism test of 177Lu-labeled complex in SD rats (plasma radioactive counts)
- Experimental setup: mean of rats, 5 min after tail vein injection
Report the value in cpm with no unit label.

Exercise: Look up plasma radioactive counts, MEAN for this compound: O=C([O-])CN1CCN(CC(=O)[O-])CCN(CC(=O)Nc2nc3cc(C(=O)NC(Cc4ccc5ccccc5c4)C(=O)NCCCCC(NC(=O)NC(CCC(=O)O)C(=O)O)C(=O)O)ccc3s2)CCN(CC(=O)[O-])CC1.[177Lu+3] (stereo not drawn) [^177Lu-E1]
Solution: 22724

Exercise: Look up plasma radioactive counts, MEAN for this compound: O=C([O-])CN1CCN(CC(=O)[O-])CCN(CC(=O)N2CCc3cc(C(=O)NC(Cc4ccc5ccccc5c4)C(=O)NCCCCC(NC(=O)NC(CCC(=O)O)C(=O)O)C(=O)O)ccc3C2)CCN(CC(=O)[O-])CC1.[177Lu+3] (stereo not drawn) [^177Lu-E3]
Solution: 28653

Exercise: Look up plasma radioactive counts, MEAN for this compound: O=C([O-])CN1CCN(CC(=O)[O-])CCN(CC(=O)NC23CC(C(=O)NC(Cc4ccc5ccccc5c4)C(=O)NCCCCC(NC(=O)NC(CCC(=O)O)C(=O)O)C(=O)O)(C2)C3)CCN(CC(=O)[O-])CC1.[177Lu+3] (stereo not drawn) [^177Lu-E14]
Solution: 42988

Exercise: Look up plasma radioactive counts, MEAN for this compound: O=C([O-])CN1CCN(CC(=O)[O-])CCN(CC(=O)N2CCC3(CCC(C(=O)NC(Cc4ccc5ccccc5c4)C(=O)NCCCCC(NC(=O)NC(CCC(=O)O)C(=O)O)C(=O)O)CC3)CC2)CCN(CC(=O)[O-])CC1.[177Lu+3] (stereo not drawn) [^177Lu-E9]
Solution: 32966

Exercise: Look up plasma radioactive counts, MEAN for this compound: O=C([O-])CN1CCN(CC(=O)[O-])CCN(CC(=O)N2CC3(CCC(C(=O)NC(Cc4ccc5ccccc5c4)C(=O)NCCCCC(NC(=O)NC(CCC(=O)O)C(=O)O)C(=O)O)CC3)C2)CCN(CC(=O)[O-])CC1.[177Lu+3] (stereo not drawn) [^177Lu-E2]
Solution: 39555

Exercise: Look up plasma radioactive counts, MEAN for this compound: O=C([O-])CN1CCN(CC(=O)[O-])CCN(CC(=O)NCC2CCC(C(=O)N[C@@H](Cc3ccc4ccccc4c3)C(=O)NCCCC[C@H](NC(=O)N[C@@H](CCC(=O)O)C(=O)O)C(=O)O)CC2)CCN(CC(=O)[O-])CC1.[177Lu+3] (stereo partly drawn) [^177Lu-PSMA-617, reference compound]
Solution: 23245
